- MEASUREMENT NOTES: peroxy radical scavenging activity (BODIPY 581/591 C11 fluorescence with AMVN radical generator, microplate; Median Effect/CalcuSyn analysis)
- EXPERIMENTAL SETUP: Example 1; test material alone; 95% confidence interval in parentheses

>  <TEST SMILES>
COc1ccc2[nH]cc(CCNC(C)=O)c2c1

>  <IC50 / µM>
284

$$$$
